The compounds listed here are annotated with their cytotoxicity at 10 µM.
- TEST METHOD NOTES: Toxicity liver stage against HepG2, at 10uM
- Type: cell-based
- Set-up: test concentration 10 uM, cell line HepG2-A16-CD81EGFP
- REPORTED CONDITIONS: human, HepG2-A16-CD81EGFP cells; read-out: INHIBITION
MEASURED PROPERTY: cytotoxicity at 10 µM (%)

COMPOUND | MEASURED PROPERTY | NUMERIC VALUE
CN(CC(=O)NCCC#N)C(c1ccccc1)c1ccccc1 | cytotoxicity at 10 µM | 6.51
CCCS(=O)(=O)N1CCC(NC(=O)c2cc(CC)c(C)s2)CC1 | cytotoxicity at 10 µM | -4.61
CC(C)n1cnnc1CN(C)C(=O)C1CCCN(CC(N)=O)C1 (stereo unspecified) | cytotoxicity at 10 µM | 1.05
Cc1cccc(CN2CCC(c3nnsc3S(C)(=O)=O)CC2)n1 | cytotoxicity at 10 µM | -8.69
Cc1ccc(C(=O)NCCC(C)C)cc1NS(C)(=O)=O | cytotoxicity at 10 µM | 10.9
CC1=N[C@@]2(CC[C@@H]3CN(C(=O)NC(C)C)C[C@@H]32)C(=O)N1CC(C)C | cytotoxicity at 10 µM | 7.74
Cn1cccc1C(=O)N1CCCN(CCCc2ccccc2)CC1 | cytotoxicity at 10 µM | -16.4
Cc1sc(Br)cc1S(=O)(=O)NCc1ccccn1 | cytotoxicity at 10 µM | -3.85
COCCN1CCC2(CC1)CN(C(=O)c1ccccc1)CCO2 | cytotoxicity at 10 µM | 1.61
CN(Cc1cncnc1)[C@H]1CN(CC2CC2)[C@@H]2CCCO[C@@H]21 | cytotoxicity at 10 µM | -9.87
Nc1nccnc1C1CN(C(=O)c2ccc3c(c2)OCO3)CCO1 (stereo unspecified) | cytotoxicity at 10 µM | -23.7

====

- TEST METHOD NOTES: Toxicity liver stage against HepG2, at 10uM
- Type: cell-based
- Set-up: test concentration 10 uM, cell line HepG2-A16-CD81EGFP
- REPORTED CONDITIONS: human, HepG2-A16-CD81EGFP cells; read-out: INHIBITION
The molecules listed here are annotated with their cytotoxicity at 10 µM.
MEASURED PROPERTY: cytotoxicity at 10 µM (%)

MOLECULE | UNIT NAME | NUMERIC VALUE
Cc1cc(NCC2CCCO2)cc(=O)n1C (stereo not drawn) | % | -8.19
Cc1nsc(N2CCCN(C(=O)NCc3cc(C)on3)CC2)n1 | % | -1.63
c1ccc(Cn2cccn2)c(CNCc2cnc(N3CCCC3)nc2)c1 | % | -5.34
CCOc1ccccc1-c1noc(CN(C)Cc2cnn(C)c2)n1 | % | -6.98
CN(Cc1cccc2ncccc12)C(=O)CCn1ccc(=O)[nH]c1=O | % | -134
O=C(CC1CC1)N1CCN(Cc2ccncc2)c2ncccc2C1 | % | 10
COC(=O)CNC(=O)c1nc(Cl)sc1C(C)C | % | 1.34
Cc1ccc(N2CCC(C3CCN(CC(C)C)CC3)C2)nn1 (stereo not drawn) | % | -6.81
CC(C)N(CCCNC(=O)C1CCOCC1)S(C)(=O)=O | % | 0.617
COCCN1CCC2(CC1)CC(N1CCOCC1)c1cc(C)ccc12 (stereo not drawn) | % | -106
COc1nn(C)c2c1CCCN(C(=O)c1cc[nH]n1)C2 | % | -5.2
O=c1ccc2c(n1CC1CC1)CCC(NCc1cccs1)C2 (stereo not drawn) | % | -111
CN1C(=O)CC[C@@H]2[C@H]1CCN2S(=O)(=O)Cc1ccccc1 | % | -5.73
